Origin of measurements: ChEMBL document CHEMBL5247577

- protocol notes: Metabolic stability in human hepatocyte assessed as half life
- Format: ADME, cell-based
- experimental context: hepatocytes
recorded endpoint: half-life

smiles entry: CNC(=O)CCCCC[C@H](NC(=O)Cn1ccc2cc(C#N)ccc21)c1ncc(-c2ccc(CN(C)C)cc2)[nH]1
recorded endpoint: half-life
test result: > 4 h

---

- protocol notes: Clearance in Gottigen pig plasma by LC/MS/MS analysis
- Format: ADME, Sus scrofa

smiles entry: CCC(=O)CCCCC[C@H](NC(=O)C1CN(C)C1)c1ncc(-c2cc3ccccc3nc2OC)o1
clearance / mL/min/kg: 20

---

- protocol notes: Oral bioavailability in Gottigen pig by LC/MS/MS analysis
- Format: ADME, organism-based, Sus scrofa
- experimental context: in vivo
recorded endpoint: bioavailability (%)

smiles entry: CCC(=O)CCCCC[C@H](NC(=O)C1CN(C)C1)c1ncc(-c2cc3ccccc3nc2OC)o1
measurement units: %
test result: 30

---

- target desc: Histone deacetylase
- protocol notes: Inhibition of HDAC in human HeLa cells using FLUOR DE LYS-SIRT1 as fluorogenic substrate incubated for 4 hrs by spectrophotometer based analysis
- Assay type: cell-based
Form field: EC50 (one value per entry).
recorded endpoint: EC50 (µM)

smiles entry: CCC(=O)CCCCC[C@H](NC(=O)C1CN(C)C1)c1ncc(-c2cc3ccccc3[nH]c2=O)o1
recorded endpoint: EC50
test result: 0.094

smiles entry: CCC(=O)CCCCC[C@H](NC(=O)Cc1c(C)[nH]c2ccc(OC)cc12)c1ncc(-c2ccc3ccccc3c2)[nH]1
recorded endpoint: EC50
test result: 0.044

smiles entry: CCC(=O)CCCCC[C@H](NC(=O)C(=O)N1CCOCC1)c1ncc(-c2cc3ccccc3nc2OC)o1
recorded endpoint: EC50
test result: 0.61

---

- protocol notes: Oral bioavailability in Wistar rat at 10 mg/kg by LC/MS/MS analysis
- Format: ADME, organism-based
- experimental context: in vivo

smiles entry: CCC(=O)CCCCC[C@H](NC(=O)C1CN(C)C1)c1ncc(-c2cc3ccccc3nc2OC)o1
measurement units: %
bioavailability: 100

---

- protocol notes: AUC in Gottigen pig plasma 5 to 20 mg/kg, po by LC/MS/MS analysis
- Assay type: ADME, organism-based, Sus scrofa
- Parameters: route po
- experimental context: dose 5-20 mg/kg

smiles entry: CCC(=O)CCCCC[C@H](NC(=O)C1CN(C)C1)c1ncc(-c2cc3ccccc3nc2OC)o1
AUC: 2.6 µM·h

---

- protocol notes: AUC in Wistar rat plasma at 5 to 20 mg/kg, po by LC/MS/MS analysis
- Type: ADME, organism-based
- Set-up: route po
- experimental context: dose 5-20 mg/kg

smiles entry: CCC(=O)CCCCC[C@H](NC(=O)C1CN(C)C1)c1ncc(-c2cc3ccccc3nc2OC)o1
AUC: 21.5 µM·h

---

- protocol notes: Unbound fraction in human plasma
- Format: ADME, cell-free
recorded endpoint: fraction unbound

smiles entry: CCC(=O)CCCCC[C@H](NC(=O)C1CN(C)C1)c1ncc(-c2cc3ccccc3nc2OC)o1
recorded endpoint: fraction unbound
test result: 0.018

---

- target desc: Sodium channel protein type 5 subunit alpha (Homo sapiens, UniProt Q14524)
- Sequence (Q14524 whole entry): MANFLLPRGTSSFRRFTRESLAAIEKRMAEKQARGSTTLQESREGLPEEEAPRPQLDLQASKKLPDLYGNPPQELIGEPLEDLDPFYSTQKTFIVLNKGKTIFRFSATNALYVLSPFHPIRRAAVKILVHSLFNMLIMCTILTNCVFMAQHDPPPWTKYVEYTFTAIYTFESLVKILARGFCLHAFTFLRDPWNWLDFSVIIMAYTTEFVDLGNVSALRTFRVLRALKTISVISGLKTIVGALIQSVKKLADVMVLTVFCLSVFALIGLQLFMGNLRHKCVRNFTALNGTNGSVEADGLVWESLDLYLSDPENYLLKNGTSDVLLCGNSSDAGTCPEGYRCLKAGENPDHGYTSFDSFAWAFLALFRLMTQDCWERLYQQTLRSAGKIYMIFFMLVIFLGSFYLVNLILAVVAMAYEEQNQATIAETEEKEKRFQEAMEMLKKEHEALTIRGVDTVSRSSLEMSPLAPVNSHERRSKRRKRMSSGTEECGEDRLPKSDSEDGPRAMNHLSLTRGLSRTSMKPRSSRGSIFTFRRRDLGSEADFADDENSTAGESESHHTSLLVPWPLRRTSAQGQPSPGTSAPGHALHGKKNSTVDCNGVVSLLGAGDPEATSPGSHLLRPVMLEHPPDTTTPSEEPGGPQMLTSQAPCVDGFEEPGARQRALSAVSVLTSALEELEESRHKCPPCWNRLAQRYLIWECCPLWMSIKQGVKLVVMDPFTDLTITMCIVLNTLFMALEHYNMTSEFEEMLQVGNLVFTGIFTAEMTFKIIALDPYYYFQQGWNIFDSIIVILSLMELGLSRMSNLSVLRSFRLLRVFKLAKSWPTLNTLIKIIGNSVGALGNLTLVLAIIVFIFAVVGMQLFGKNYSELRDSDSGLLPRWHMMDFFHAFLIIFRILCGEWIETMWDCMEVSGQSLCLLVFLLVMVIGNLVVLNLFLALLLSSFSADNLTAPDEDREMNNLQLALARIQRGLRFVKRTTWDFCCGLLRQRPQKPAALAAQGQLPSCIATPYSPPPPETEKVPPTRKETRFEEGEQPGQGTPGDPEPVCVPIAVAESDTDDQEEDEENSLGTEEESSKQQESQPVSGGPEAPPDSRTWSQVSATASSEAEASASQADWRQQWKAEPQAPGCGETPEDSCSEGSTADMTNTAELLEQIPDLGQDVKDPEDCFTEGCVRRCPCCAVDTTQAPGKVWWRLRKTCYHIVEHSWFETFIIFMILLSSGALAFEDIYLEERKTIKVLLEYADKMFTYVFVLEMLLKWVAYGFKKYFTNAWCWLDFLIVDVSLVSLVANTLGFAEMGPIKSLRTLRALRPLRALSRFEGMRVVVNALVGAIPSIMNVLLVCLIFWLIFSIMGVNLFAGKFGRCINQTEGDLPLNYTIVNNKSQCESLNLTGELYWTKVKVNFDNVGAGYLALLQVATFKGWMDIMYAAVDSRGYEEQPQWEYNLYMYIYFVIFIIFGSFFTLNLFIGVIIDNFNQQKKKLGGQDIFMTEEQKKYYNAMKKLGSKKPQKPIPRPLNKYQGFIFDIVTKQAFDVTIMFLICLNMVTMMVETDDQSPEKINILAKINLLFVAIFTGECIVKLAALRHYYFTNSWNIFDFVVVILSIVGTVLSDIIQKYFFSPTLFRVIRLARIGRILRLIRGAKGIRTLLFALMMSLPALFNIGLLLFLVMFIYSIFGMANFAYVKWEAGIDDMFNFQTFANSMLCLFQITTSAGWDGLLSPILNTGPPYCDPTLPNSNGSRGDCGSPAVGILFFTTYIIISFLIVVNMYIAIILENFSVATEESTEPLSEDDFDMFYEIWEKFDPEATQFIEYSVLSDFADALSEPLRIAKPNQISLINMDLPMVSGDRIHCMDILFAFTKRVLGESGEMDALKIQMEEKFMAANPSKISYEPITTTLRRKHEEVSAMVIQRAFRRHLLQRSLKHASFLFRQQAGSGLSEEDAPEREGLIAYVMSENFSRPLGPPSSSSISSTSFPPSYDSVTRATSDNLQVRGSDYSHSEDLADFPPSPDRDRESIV
- protocol notes: Inhibition of Nav1.5 (unknown origin)
pIC50: −log10 of the molar value.

smiles entry: CCC(=O)CCCCC[C@H](NC(=O)C1CN(C)C1)c1ncc(-c2cc3ccccc3nc2OC)o1
pIC50: < 4.80
